Listing of entries alongside the reported inhibition at 1000 µM.
Target: aryl sulfatase A (ARSA) (Homo sapiens)
Construct: purchased R & D Systems
Sequence (P15289 19-507): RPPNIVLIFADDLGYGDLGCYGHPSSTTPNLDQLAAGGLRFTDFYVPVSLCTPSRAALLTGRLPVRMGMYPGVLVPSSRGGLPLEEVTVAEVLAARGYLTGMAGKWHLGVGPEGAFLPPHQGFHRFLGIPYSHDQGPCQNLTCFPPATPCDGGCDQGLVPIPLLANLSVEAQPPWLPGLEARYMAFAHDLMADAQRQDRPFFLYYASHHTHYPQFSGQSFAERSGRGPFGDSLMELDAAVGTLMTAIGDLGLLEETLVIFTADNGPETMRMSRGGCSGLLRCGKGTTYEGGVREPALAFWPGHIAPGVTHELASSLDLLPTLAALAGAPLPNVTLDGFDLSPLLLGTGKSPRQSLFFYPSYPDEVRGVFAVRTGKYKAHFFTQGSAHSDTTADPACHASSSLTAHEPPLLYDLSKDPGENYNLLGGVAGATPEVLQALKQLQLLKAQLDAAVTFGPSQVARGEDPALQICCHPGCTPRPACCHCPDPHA
Test: ARSA inhibition assay with 4-MUS substrate
Type: biochemical
Conditions: 1 mM compound; 4-MUS substrate; means of two or more determinations; read-out: ARSA% inh @ 1 mM
Give the quantity in %, number only.

Worked examples, 5 compounds total:
INSERT INTO results (given_smiles, tgt, result) VALUES
  ('O=S(=O)(Nc1cccc(-c2ccccc2)c1)OCC(Cl)(Cl)Cl', 'aryl sulfatase A (ARSA) (Homo sapiens)', 0),
  ('O=S(=O)(Nc1cccc(Oc2ccccc2)c1)OCC(Cl)(Cl)Cl', 'aryl sulfatase A (ARSA) (Homo sapiens)', 74),
  ('NS(=O)(=O)Oc1cccc(Oc2cccc(NS(=O)(=O)OCC(Cl)(Cl)Cl)c2)c1', 'aryl sulfatase A (ARSA) (Homo sapiens)', 100),
  ('NS(=O)(=O)Oc1cccc(Oc2ccccc2C(=O)O)c1', 'aryl sulfatase A (ARSA) (Homo sapiens)', 44),
  ('NS(=O)(=O)Oc1cccc(-c2ccc(C(=O)O)cc2)c1', 'aryl sulfatase A (ARSA) (Homo sapiens)', 85);

// next item, inhibition at 1000 µM requested
Lookup result for `NS(=O)(=O)Oc1cccc(-c2ccccc2NS(=O)(=O)O)c1` ; measured inhibition at 1000 µM: 26

Hello, the source for this data is paper PMC5477036, in case you need it.
